- EXPERIMENTAL_SYSTEM: T1, human HGF (R&D material and Peprotech material, values averaged over both) (human, UniProt P14210 32-728)
- T1 construct: As printed they differ in one letter
- T1 sequence (P14210 32-728 limits assumed): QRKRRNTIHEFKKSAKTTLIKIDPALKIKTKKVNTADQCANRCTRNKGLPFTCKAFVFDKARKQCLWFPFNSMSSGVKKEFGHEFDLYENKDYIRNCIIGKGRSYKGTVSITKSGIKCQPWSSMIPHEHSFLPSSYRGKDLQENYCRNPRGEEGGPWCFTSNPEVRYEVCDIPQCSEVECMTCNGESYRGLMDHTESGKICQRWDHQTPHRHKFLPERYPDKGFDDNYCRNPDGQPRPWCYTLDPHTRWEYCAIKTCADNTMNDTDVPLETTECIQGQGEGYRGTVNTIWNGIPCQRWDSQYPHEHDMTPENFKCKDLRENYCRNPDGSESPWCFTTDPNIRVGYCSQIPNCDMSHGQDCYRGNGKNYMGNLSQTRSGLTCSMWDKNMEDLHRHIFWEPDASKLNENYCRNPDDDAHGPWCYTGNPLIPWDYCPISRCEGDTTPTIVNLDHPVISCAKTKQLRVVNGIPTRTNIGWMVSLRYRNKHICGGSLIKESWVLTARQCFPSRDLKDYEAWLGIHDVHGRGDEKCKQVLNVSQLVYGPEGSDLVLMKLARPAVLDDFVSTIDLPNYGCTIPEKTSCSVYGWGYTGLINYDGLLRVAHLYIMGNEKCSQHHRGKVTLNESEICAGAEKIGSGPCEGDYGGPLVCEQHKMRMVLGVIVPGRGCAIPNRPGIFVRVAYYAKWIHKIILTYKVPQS
- ASSAY_NOTES: SPR (Biacore T100), purified Nanobody, average of R&D and Peprotech HGF
MEASURE_NAME: kon (M⁻¹ s⁻¹)
One number for each entry, in M⁻¹ s⁻¹.

BINDER: 7G6 (VHH, anti-HGF Nanobody clone; not shown: c-myc and His6 tags) VHH: EVQLVESGGGLVQAGGSLRLSCAVSGRTFSPYTMGWFRRAPGKEREFVAARTWSGGVAWYADSVKGRFTISSDNAENMVYLQMNSLKPEDTAVYYCAAKSPGRTYSPREERAYARWGQGTQVTVSS
MEASURE_NAME: kon
OBSERVED: 1.06e+06

The following binders each have a reported value; give each one's kon.
1. 1E9 (VHH, anti-HGF Nanobody clone; not shown: c-myc and His6 tags) VHH: EVQLVESGGGLVQPGGSLRLSCAASGFTLDHYTIGWFRQAPGNEREGVSCISSLDGSTYYADSVKGRFTISRDNAKDTVYLQMNSLKPEDTAVYYCAVAGCGAYGLIPYDYWGQGTQVTVSS
2. 6G6 (VHH, anti-HGF Nanobody clone; not shown: c-myc and His6 tags) VHH: EVQLVESGGGLAQAGGSLRLSCAASGRSLSNYAMGWFRQAPGKEREIVCAISRSGSITTYADSVKGRFTIAKDNAANTVYLQMNSLKPEDTAAYYCAADPMYYGIPDQNWDYWGQGTQVTVSS

(A)
1: 92000; 2: 753000

The following binders each have a reported value; give each one's kon.
1. 6B2 (VHH, anti-HGF Nanobody clone; not shown: c-myc and His6 tags) VHH: EVQLVESGGGLVQAGGSLRLSCAASGRTFSSYAMGWFRQAPGKEREFVAAINWSGDSTYYADSVKGRFTISRDNAKNTVYLQMNSLKPEDTAVYYCAAGDVGRPDLYEYDYWGQGTQVTVSS
2. 1E2 (VHH, anti-HGF Nanobody clone; not shown: c-myc and His6 tags) VHH: EVQLVESGGGLVQPGGSLRLSCAASGRTFSSYAMGWFRQAPGKEREFVAGISWSGSSSYYADSVKGRFTISRDNAKNTVYLQMNSLKPEDTAVYYCAADPVGRADLYEYDYWGQGTQVTVSS
3. 6E10 (VHH, anti-HGF Nanobody clone; not shown: c-myc and His6 tags) VHH: EVQLVESGGGLVQAGGSLRLSCAASGRTDSSYAMGWFRQAPGKEHEFVAAISWSGGSTYYADSVKGRFTISRDNAKNTLYLQMNSLKPEDTAVYYCGASYRWGITHEYEYWGQGTQVTVSS

(A)
27800
75200
49900

Source of measurements: patent US20150010546A1
